- Measured target: UniProt Q12809
- Sequence (Q12809 whole entry): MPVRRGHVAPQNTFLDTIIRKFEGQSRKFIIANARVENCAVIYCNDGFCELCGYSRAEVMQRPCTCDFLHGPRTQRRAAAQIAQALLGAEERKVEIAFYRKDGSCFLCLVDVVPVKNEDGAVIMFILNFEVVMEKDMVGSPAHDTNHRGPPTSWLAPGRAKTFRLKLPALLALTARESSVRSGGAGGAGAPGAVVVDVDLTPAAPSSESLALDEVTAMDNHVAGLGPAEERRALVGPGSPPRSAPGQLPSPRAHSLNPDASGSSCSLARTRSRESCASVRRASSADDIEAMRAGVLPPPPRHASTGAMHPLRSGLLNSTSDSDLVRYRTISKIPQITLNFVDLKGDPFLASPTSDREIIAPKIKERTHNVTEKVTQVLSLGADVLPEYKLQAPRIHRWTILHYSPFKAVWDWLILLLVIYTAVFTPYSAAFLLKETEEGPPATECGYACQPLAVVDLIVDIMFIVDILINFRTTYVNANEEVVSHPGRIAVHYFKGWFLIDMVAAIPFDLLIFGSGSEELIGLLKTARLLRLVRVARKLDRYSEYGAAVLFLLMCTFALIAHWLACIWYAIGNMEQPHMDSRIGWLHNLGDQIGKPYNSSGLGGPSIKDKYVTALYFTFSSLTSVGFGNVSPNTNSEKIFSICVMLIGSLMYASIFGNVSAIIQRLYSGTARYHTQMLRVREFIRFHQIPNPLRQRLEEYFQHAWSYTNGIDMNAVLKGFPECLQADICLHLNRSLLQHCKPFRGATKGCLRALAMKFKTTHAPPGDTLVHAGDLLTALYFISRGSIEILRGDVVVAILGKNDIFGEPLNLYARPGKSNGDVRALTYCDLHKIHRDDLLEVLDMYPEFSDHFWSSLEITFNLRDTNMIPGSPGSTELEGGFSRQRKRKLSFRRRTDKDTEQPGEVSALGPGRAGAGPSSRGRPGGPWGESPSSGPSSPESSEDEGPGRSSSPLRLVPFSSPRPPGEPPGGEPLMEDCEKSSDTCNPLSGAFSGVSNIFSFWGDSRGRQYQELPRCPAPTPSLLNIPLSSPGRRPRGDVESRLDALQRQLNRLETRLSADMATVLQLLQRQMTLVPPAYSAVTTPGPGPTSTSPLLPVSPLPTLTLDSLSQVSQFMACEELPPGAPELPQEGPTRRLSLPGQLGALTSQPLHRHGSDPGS
- Test details: Effect on membrane potassium current IKr in hERG transfected CHO cells, Protocol 1 (QPatch)
pIC50: −log10 of the molar value. Counter-ions that a name gives are not always drawn.
// values below are reported pIC50

Compound	pIC50
CCN(C(=O)c1cc(F)ccc1Oc1nncnc1N1CCC2(C1)CN([C@H](CCC(C)(C)NC)C(C)C)C2)C(C)C (single isomer, unassigned) [Compound 35, hydrochloride]	< 4.52
CCN(C(=O)c1cc(F)ccc1Oc1nncnc1N1CCC2(C1)CN([C@H](CCCNC(=O)OC)C(C)C)C2)C(C)C [Compound 10]	< 4.52
CCN(C(=O)c1cc(F)ccc1Oc1nncnc1N1CCC2(C1)CN([C@H](CCCN(C)CC(=O)N(C)C)C(C)C)C2)C(C)C [Compound 23]	< 4.52
